Recorded values, source ChEMBL document CHEMBL5104140.

// reported bioavailability per item
Test: Oral bioavailability in rat at 5 mg/kg
Assay type: ADME, organism-based
Settings: in vivo

compound	bioavailability
NC(=O)[C@@H]1[C@H](Nc2nc(Nc3ccnc(N4CCOCC4)c3)nc3ccsc23)[C@H]2C=C[C@@H]1C2	12%
Cc1n[nH]c2nc(Nc3cc(F)cc(N4CCOCC4)c3)nc(N[C@H]3[C@@H](C(N)=O)[C@@H]4C=C[C@H]3C4)c12	7%
CN1CCN(c2cc(Nc3nc(N[C@H]4[C@@H](C(N)=O)[C@@H]5C=C[C@H]4C5)c4sccc4n3)ccn2)CC1	< 1%
CC(C)n1ncc2ccc(Nc3nc(N[C@H]4[C@@H](C(N)=O)[C@@H]5C=C[C@H]4C5)c4c(ccn4C(F)F)n3)cc21	43%
Cc1n[nH]c2nc(Nc3cccc(C(=O)N4CCCC4)c3)nc(N[C@H]3[C@@H](C(N)=O)[C@@H]4C=C[C@H]3C4)c12	27%
NC(=O)[C@@H]1[C@H](Nc2nc(Nc3cc(F)cc(N4CCOCC4)c3)nc3ccoc23)[C@H]2C=C[C@@H]1C2	38%
Cn1ccc2nc(Nc3cccc(C(=O)N4CCCC4)c3)nc(N[C@H]3[C@@H](C(N)=O)[C@@H]4C=C[C@H]3C4)c21	1%
NC(=O)[C@@H]1[C@H](Nc2nc(Nc3cc(F)cc(N4CCOCC4)c3)nc3ccsc23)[C@H]2C=C[C@@H]1C2	24%

Field: next compound
Find the recorded bioavailability belonging to NC(=O)[C@@H]1[C@H](Nc2nc(Nc3cccc(C(=O)N4CCC(F)C4)c3)nc3ccsc23)[C@H]2C=C[C@@H]1C2 (some centres undefined) and report it.
3%

----------
// reported clearance per item
Experiment: Clearance in rat at 1 mg/kg, iv
Assay type: ADME, organism-based
Settings: in vivo
# output: bare number, implied unit mL/min/kg

Past entries and their recorded results:
compound	clearance (mL/min/kg)
NC(=O)[C@@H]1[C@H](Nc2nc(Nc3cccc(C(=O)N4CCCC4)c3)nc3ccoc23)[C@H]2C=C[C@@H]1C2	101
NC(=O)[C@@H]1[C@H](Nc2nc(Nc3cccc(C(=O)N4CCCC4)c3)nc3[nH]ccc23)[C@H]2C=C[C@@H]1C2	100
NC(=O)[C@@H]1[C@H](Nc2nc(Nc3cccc(C(=O)N4CCCC4)c3)nc3ccccc23)[C@H]2C=C[C@@H]1C2	102

Find the recorded clearance belonging to O=C(c1cccc(Nc2nc(NC3C[C@@H]4CC[C@H]3C4)c3sccc3n2)c1)N1CCC(F)C1 (stereo partly specified) and report it.
143

Find the recorded clearance belonging to NC(=O)[C@@H]1[C@H](Nc2nc(Nc3cccc(C(=O)N4CCCC4)c3)nc3ccn(C(F)F)c23)[C@H]2C=C[C@@H]1C2 and report it.
88

----------
// reported pIC50 per item
Test system: PAD
Experiment: Induction of PAD activity against human A549 cells
Type: toxicity, cell-based
Scale: pIC50 equals -log10([C]), with [C] in mol/L.

Past entries and their recorded results:
NC(=O)[C@@H]1[C@H](Nc2nc(Nc3ccnc(N4CCCC4)c3)nc3ccsc23)[C@H]2C=C[C@@H]1C2 5.59
NC(=O)[C@@H]1[C@H](Nc2nc(Nc3ccc(OCCN4CCCC4)cc3)nc3ccsc23)[C@H]2C=C[C@@H]1C2 6.21
CC(C)n1ncc2ccc(Nc3nc(N[C@H]4[C@@H](C(N)=O)[C@@H]5C=C[C@H]4C5)c4c(ccn4C(F)F)n3)cc21 6.09
Cn1ccc2nc(Nc3cccc(C(=O)N4CCCC4)c3)nc(N[C@H]3[C@@H](C(N)=O)[C@@H]4C=C[C@H]3C4)c21 5.03
NC(=O)[C@@H]1[C@H](Nc2nc(Nc3cc(F)cc(N4CCOCC4)c3)nc3ncsc23)[C@H]2C=C[C@@H]1C2 5.12

Find the recorded pIC50 belonging to NC(=O)[C@@H]1[C@H](Nc2nc(Nc3cc(F)cc(N4CCOCC4)c3)nc3ccn(C(F)F)c23)[C@H]2C=C[C@@H]1C2 and report it.
6.00

----------
Tested on: PAD
Assay: Induction of PAD activity against human A549 cells
Format: toxicity, cell-based
// reported pIC50 per item
Scale: pIC50 equals -log10([C]), with [C] in mol/L.

molecule	system	pIC50
CC(C)n1ccc2nc(Nc3ccc4cnn(C(C)C)c4c3)nc(N[C@H]3[C@@H](C(N)=O)[C@@H]4C=C[C@H]3C4)c21	PAD	5.59

Enter reported pIC50 observed with PAD for NC(=O)[C@@H]1[C@H](Nc2nc(Nc3cccc(C(=O)N4CCCC4)c3)nc3[nH]ncc23)[C@H]2C=C[C@@H]1C2
5.24

Enter reported pIC50 observed with PAD for NC(=O)[C@@H]1[C@H](Nc2nc(Nc3ccc(F)c(N4CCOCC4)c3)nc3ccsc23)[C@H]2C=C[C@@H]1C2
5.60

Enter reported pIC50 observed with PAD for NC(=O)[C@@H]1[C@H](Nc2nc(Nc3cc(F)cc(N4CCOCC4)c3)nc3ccoc23)[C@H]2C=C[C@@H]1C2
5.49

Enter reported pIC50 observed with PAD for NC(=O)[C@@H]1[C@H](Nc2nc(Nc3cccc(C(=O)N4CCCC4)c3)nc3ncsc23)[C@H]2C=C[C@@H]1C2
5.40

Enter reported pIC50 observed with PAD for Cc1n[nH]c2nc(Nc3cc(F)cc(N4CCOCC4)c3)nc(N[C@H]3[C@@H](C(N)=O)[C@@H]4C=C[C@H]3C4)c12
6.59

Enter reported pIC50 observed with PAD for NC(=O)[C@@H]1[C@H](Nc2nc(Nc3cccc(C(=O)N4CCOCC4)c3)nc3ccsc23)[C@H]2C=C[C@@H]1C2
5.31

Enter reported pIC50 observed with PAD for CC(C)n1ncc2ccc(Nc3nc(N[C@H]4[C@@H](C(N)=O)[C@@H]5C=C[C@H]4C5)c4c(ccn4C)n3)cc21
5.48

Enter reported pIC50 observed with PAD for NC(=O)[C@@H]1[C@H](Nc2nc(Nc3ccc(C(=O)N4CCCC4)cc3)nc3ccsc23)[C@H]2C=C[C@@H]1C2
6.25

Enter reported pIC50 observed with PAD for Cn1ncc2nc(Nc3cccc(C(=O)N4CCCC4)c3)nc(N[C@H]3[C@@H](C(N)=O)[C@@H]4C=C[C@H]3C4)c21
5.00

Enter reported pIC50 observed with PAD for NC(=O)[C@@H]1[C@H](Nc2nc(Nc3ccc(C(=O)N4CCOCC4)cc3)nc3ccsc23)[C@H]2C=C[C@@H]1C2
5.96

Enter reported pIC50 observed with PAD for NC(=O)[C@@H]1[C@H](Nc2nc(Nc3cccc(C(=O)N4CCCC4)c3)nc3ccccc23)[C@H]2C=C[C@@H]1C2
5.12

Enter reported pIC50 observed with PAD for NC(=O)[C@@H]1[C@H](Nc2nc(Nc3ccc(F)c(C(=O)N4CCCC4)c3)nc3ccsc23)[C@H]2C=C[C@@H]1C2
5.10

Enter reported pIC50 observed with PAD for NC(=O)[C@@H]1[C@H](Nc2nc(Nc3cccc(C(=O)N4CCC(F)C4)c3)nc3ccsc23)[C@H]2C=C[C@@H]1C2 (stereo partly drawn)
5.57

Enter reported pIC50 observed with PAD for NC(=O)[C@@H]1[C@H](Nc2nc(Nc3cc(F)cc(N4CCOCC4)c3)nc3ccsc23)[C@H]2C=C[C@@H]1C2
5.64

Enter reported pIC50 observed with PAD for O=C(c1cccc(Nc2nc(NC3C[C@@H]4CC[C@H]3C4)c3sccc3n2)c1)N1CCC(F)C1 (stereo partly drawn)
5.46

Enter reported pIC50 observed with PAD for NC(=O)[C@@H]1[C@H](Nc2nc(Nc3ccnc(N4CCOCC4)c3)nc3ccsc23)[C@H]2C=C[C@@H]1C2
5.57

Enter reported pIC50 observed with PAD for NC(=O)c1ccccc1Nc1nc(Nc2cccc(C(=O)N3CCCC3)c2)nc2ccsc12
5.19

Enter reported pIC50 observed with PAD for NC(=O)[C@@H]1[C@H](Nc2nc(Nc3cccc(C(=O)N4CCCC4)c3)nc3ccsc23)[C@H]2C=C[C@@H]1C2
5.42

Enter reported pIC50 observed with PAD for NC(=O)[C@@H]1[C@H](Nc2nc(Nc3cccc(C(=O)N4CCCC4)c3)nc3ccn(C(F)F)c23)[C@H]2C=C[C@@H]1C2
5.82

Enter reported pIC50 observed with PAD for CN1CCN(c2cc(Nc3nc(N[C@H]4[C@@H](C(N)=O)[C@@H]5C=C[C@H]4C5)c4sccc4n3)ccn2)CC1
5.77

Enter reported pIC50 observed with PAD for NC(=O)[C@@H]1[C@H](Nc2nc(Nc3cccc(C(=O)N4CCCC4)c3)nc3[nH]ccc23)[C@H]2C=C[C@@H]1C2
6.38

Enter reported pIC50 observed with PAD for NC(=O)[C@@H]1[C@H](Nc2nc(Nc3cccc(C(=O)N4CCCC4)c3)nc3ccoc23)[C@H]2C=C[C@@H]1C2
5.24

Enter reported pIC50 observed with PAD for NC(=O)[C@@H]1[C@H](Nc2nc(Nc3cc(C(=O)N4CCCC4)ccc3F)nc3ccsc23)[C@H]2C=C[C@@H]1C2
4.85

Enter reported pIC50 observed with PAD for Cc1c[nH]c2nc(Nc3cccc(C(=O)N4CCCC4)c3)nc(N[C@H]3[C@@H](C(N)=O)[C@@H]4C=C[C@H]3C4)c12
7.10

Enter reported pIC50 observed with PAD for CN1CCN(c2cc(Nc3nc(N[C@H]4[C@@H](C(N)=O)[C@@H]5C=C[C@H]4C5)c4sccc4n3)ccc2F)CC1
5.70
